assay: inhibition of 3D7 malaria parasite growth – strain 3D7 (AID 2306);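 also: 0% = DMSO wells and 100% = chloroquine plus artemisinin control wells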; details: P. falciparum 3D7 erythrocytic growth, LDH absorbance, 72 h; at 2 µM; hits give high values
endpointName: growth inhibition (%)
Numeric only. Scale: %

Please review the entries below; each comes with its answer.
> print(dat)
                                   molecule  reportedresult
1  CN(C)c1cc2c(Nc3ccc4nc(Cc5ccccc5)[nH]c4c3)ncnc2cn1              85
2                       c1ccc(CC2=NCCN2)cc1              94
3  CC[C@H]1CN2CCc3cc(OC)c(OC)cc3[C@@H]2C[C@@H]1C[C@H]1NCCc2cc(OC)c(OC)cc21             101
4  CCN(CCO)CCCC(C)Nc1ccnc2cc(Cl)ccc12 (stereo not drawn)              99
5  CS(=O)(=O)CCNCc1ccc(-c2ccc3ncnc(Nc4ccc(OCc5ccccc5)c(Cl)c4)c3c2)o1             101

Enquiry: # lookup: growth inhibition of N=C(N)c1ccc(OCCCCCOc2ccc(C(=N)N)cc2)cc1
Return: 99

Enquiry: Thanks! And NC12CC3CC(CC(C3)C1)C2 ?
Return: 98

Enquiry: Thanks! And CCN(CC)CCCC(C)Nc1ccnc2cc(Cl)ccc12 (stereo not drawn) ?
Return: 100
